Each entry below carries its reported IC50.
target: VAP-1 enzyme (SSAO) in human plasma (Homo sapiens, UniProt Q16853); construct: The enzyme suspension prepared from blood plasma was pre-incubated with one of the present compounds; test: Inhibitory effect on VAP-1 enzyme (SSAO) activity in human plasma, radiochemical-enzyme assay with 14C-benzylamine; settings: human plasma enzyme suspension; 30 min pre-incubation at room temperature; 14C-benzylamine 2×10^−5 mol/l, 37° C., 1 hour
Sequence (Q16853 27-763 limits assumed): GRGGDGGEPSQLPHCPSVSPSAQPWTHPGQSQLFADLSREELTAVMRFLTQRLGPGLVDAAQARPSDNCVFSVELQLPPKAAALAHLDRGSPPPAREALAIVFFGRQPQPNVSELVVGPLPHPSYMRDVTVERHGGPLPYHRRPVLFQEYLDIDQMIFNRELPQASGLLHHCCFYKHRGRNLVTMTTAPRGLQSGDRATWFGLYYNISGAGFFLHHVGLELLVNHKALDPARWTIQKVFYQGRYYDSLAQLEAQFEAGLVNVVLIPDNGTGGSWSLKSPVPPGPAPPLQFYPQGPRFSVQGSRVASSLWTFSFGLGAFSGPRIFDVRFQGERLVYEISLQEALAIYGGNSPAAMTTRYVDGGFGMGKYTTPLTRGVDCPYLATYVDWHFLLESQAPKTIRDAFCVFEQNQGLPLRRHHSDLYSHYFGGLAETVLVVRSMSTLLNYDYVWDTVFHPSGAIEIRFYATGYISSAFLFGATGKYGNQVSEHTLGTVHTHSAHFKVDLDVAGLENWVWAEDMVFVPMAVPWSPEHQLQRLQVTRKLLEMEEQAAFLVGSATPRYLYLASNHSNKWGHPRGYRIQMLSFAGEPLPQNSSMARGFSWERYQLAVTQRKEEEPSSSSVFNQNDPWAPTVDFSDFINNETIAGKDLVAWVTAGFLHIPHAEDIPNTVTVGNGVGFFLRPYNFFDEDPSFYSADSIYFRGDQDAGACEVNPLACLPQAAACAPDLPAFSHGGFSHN
Structures can show the parent of a compound that is named as a salt.
Number in nM, nothing else.

May I ask what IC50 has been recorded for CC(=O)Nc1nc(CCc2ccc(CC(=O)NC(=N)N)s2)cs1 ?
2.4

Follow-up item: CC(=O)Nc1nc(CCc2ccc(CNC(=N)N)s2)cs1 [Production Example 3, hydrochloride]
12

Follow-up item: CC(=O)Nc1nc(CCc2ccc(Cc3c[nH]c(N)n3)cc2)cs1
5.3
